# credit: patent EP4768499A1

run_description: Membrane permeability test using Caco-2 cells with preincubation
Assay type: in vitro ADME
condition_notes: Caco-2; preincubation 20 to 24 hours; Apical FaSSIF/HBSS pH 6.0, Basal HBSS 4% BSA pH 7.4; 180 minutes; read-out: Caco2 Papp
Starred links: 1 amine or outer side, 2 acyl side, 3 side chain; linkers in the order of their positions; H or OH if unused. Positions of bridges follow the written chain, without caps; N, C: chain ends. Non-standard residues stand in square brackets, D forms with d. Residues, ends and D or L forms follow the SMILES beside them. *: point of attachment. NMeF = CN[C@@H](Cc1ccccc1)C(=O)O; NMeI = CC[C@H](C)[C@H](NC)C(=O)O; NMeT = CN[C@H](C(=O)O)[C@@H](C)O; hPhe = N[C@@H](CCc1ccccc1)C(=O)O; NMeβAla = CN(CCC(=O)[*:2])[*:1]; NMeD = CN[C@@H](CC(=O)O)C(=O)O; NMeL = CN[C@@H](CC(C)C)C(=O)O; NMeV = CN[C@H](C(=O)O)C(C)C; d(β3hA) = C[C@@H](N)CC(=O)O; NMeAbu = CC[C@H](NC)C(=O)O; NMeA = CN[C@@H](C)C(=O)O; Piperidide = C1CCN(*)CC1; Abu = CC[C@H](N)C(=O)O; Sar = CNCC(=O)O; tBu = CC(C)(C)*
endpoint_label: Papp A→B (nm/s)
Answers are plain numbers, in nm/s.

[
  {
    "compound": "CC(C)C[C@@H]1NC(=O)[C@H](CC(C)C)N(C)C(=O)[C@H](C(C)C)N(C)C(=O)[C@H](CCc2ccccc2)NC(=O)[C@H]([C@@H](C)O)N(C)C(=O)[C@@H](C(C)C)NC(=O)C[C@@H](C(=O)N2CCCCC2)NC(=O)[C@H](C(C)C)N(C)C(=O)[C@H](CC(C)C)NC(=O)[C@H](Cc2ccccc2)N(C)C(=O)[C@@H]2CCCN2C(=O)[C@H](C(C)C)NC(=O)[C@H](CC(C)C)N(C)C(=O)CN(C)C1=O [pd032] ([dV][NMeT][hPhe][NMeV][NMeL]L[Sar][NMeL]VP[NMeF]L[NMeV]D-Piperidide; lactam N-14)",
    "endpoint_label": "Papp A→B",
    "readout_value": 7.2
  },
  {
    "compound": "CC[C@@H]1NC(=O)[C@H]([C@@H](C)O)N(C)C(=O)CCN(C)C(=O)[C@H]([C@@H](C)CC)NC(=O)[C@H](Cc2ccccc2)N(C)C(=O)CN(C)C(=O)C[C@@H](C(=O)N2CCCCC2)NC(=O)[C@H]([C@@H](C)CC)N(C)C(=O)[C@H](COC(C)(C)C)NC(=O)[C@@H]2CCCN2C(=O)[C@H](CCc2ccccc2)NC(=O)[C@H](CC)N(C)C(=O)[C@H](C)NC(=O)[C@H](CC(C)C)N(C)C1=O [pd038] ([Sar][NMeF]I[NMeβAla][NMeT][Abu][NMeL]A[NMeAbu][hPhe]PS(tBu)[NMeI]D-Piperidide; lactam N-14)",
    "endpoint_label": "Papp A→B",
    "readout_value": 0.4
  },
  {
    "compound": "CC[C@H](C)[C@H]1C(=O)N[C@@H]([C@@H](C)O)C(=O)N(C)CC(=O)N(C)[C@@H](CC(C)C)C(=O)N(C)[C@@H](Cc2ccccc2)C(=O)N[C@H](C(=O)N2CCCCC2)CC(=O)N(C)[C@@H](C)C(=O)N[C@@H](CC(C)C)C(=O)N(C)[C@@H](Cc2ccccc2)C(=O)N(C)CCC(=O)N(C)[C@@H](CC(C)C)C(=O)N(C)CCC(=O)N[C@@H](CC(C)C)C(=O)N1C [pd120] ([NMeA]L[NMeF][NMeβAla][NMeL][NMeβAla]L[NMeI]T[Sar][NMeL][NMeF]D-Piperidide; lactam N-13)",
    "endpoint_label": "Papp A→B",
    "readout_value": 6.9
  }
]

Parameter requested: Papp A→B. Apply to each item below.
1. CC[C@@H]1NC(=O)[C@H](CC(C)C)N(C)C(=O)[C@H]([C@@H](C)CC)NC(=O)CN(C)C(=O)C[C@@H](C)NC(=O)[C@H](C(C)C)N(C)C(=O)[C@H](COC(C)(C)C)NC(=O)[C@H](CC(C)C)N(C)C(=O)[C@H](Cc2ccccc2)N(C)C(=O)[C@H](CC(C)C)NC(=O)CN(C)C(=O)[C@H]([C@@H](C)O)NC(=O)[C@H](CC(C)C)N(C)C1=O [pd129] (cyclo([Abu][NMeL]T[Sar]L[NMeF][NMeL]S(tBu)[NMeV][d(β3hA)][Sar]I[NMeL]))
2. CC[C@H](C)[C@H]1C(=O)N[C@@H](CC(C)C)C(=O)N(C)[C@@H](CC(C)C)C(=O)N2CCC[C@H]2C(=O)N(C)[C@@H](C(C)C)C(=O)N[C@H](C(=O)N2CCCCC2)CC(=O)N(C)[C@@H](C)C(=O)N(C)[C@@H](CC(C)C)C(=O)N[C@@H](COC(C)(C)C)C(=O)N(C)[C@@H](Cc2ccccc2)C(=O)N(C)[C@@H](CC)C(=O)N(C)[C@@H](Cc2ccccc2)C(=O)N[C@@H]([C@@H](C)O)C(=O)N1C [pd119] ([NMeA][NMeL]S(tBu)[NMeF][NMeAbu][NMeF]T[NMeI]L[NMeL]P[NMeV]D-Piperidide; lactam N-13)
3. CC[C@@H]1NC(=O)[C@H](Cc2ccccc2)N(C)C(=O)[C@H]([C@@H](C)O)NC(=O)[C@H](CC(C)C)N(C)C(=O)[C@H](C)N(C)C(=O)C[C@@H](C(=O)N2CCCCC2)N(C)C(=O)[C@H](CC(C)C)N(C)C(=O)[C@H]([C@@H](C)CC)N(C)C(=O)CN(C)C(=O)[C@H](CC(C)C)NC(=O)[C@H](Cc2ccccc2)N(C)C(=O)[C@H](CC(C)C)N(C)C(=O)[C@H]([C@@H](C)CC)N(C)C1=O [pd167] ([NMeA][NMeL]T[NMeF][Abu][NMeI][NMeL][NMeF]L[Sar][NMeI][NMeL][NMeD]-Piperidide; lactam N-13)

7.1
5
2.3
